- Target Desc: DYRK1A (Homo sapiens, UniProt Q13627)
- Construct: In the assay, the truncated DYRK1A protein restricted to the kinase domain (126–490) was used; made in house; host or cells: E. coli LOBSTR strain
- Procedure Details: Cook activity assay (DYRK1A-catalyzed phosphorylation of DYRKtide, ADP production linked to PK/LDH NADH oxidation)
- Format: biochemical
- Applied Conditions: kinase domain (126–490); compound 20 nM–200 μM; ATP (128 µM); read-out: IC50 (DYRK1A inhibition)
Measured Parameter: IC50 (µM)
Reply numerically in µM, unit not repeated.

What measured IC50 goes with O=c1c(O)c(-c2ccc(O)c(O)c2)oc2c(O[C@@H]3O[C@H](CO)[C@@H](O)[C@H](O)[C@H]3O)c(O)cc(O)c12 ?
1.4

What measured IC50 goes with O=c1c(O)c(-c2ccc(O)cc2)oc2c(O)c(O)cc(O)c12 ?
6.3

What measured IC50 goes with C[C@@H]1O[C@@H](OC[C@H]2O[C@@H](Oc3c(-c4ccc(O)c(O)c4)oc4cc(O)cc(O)c4c3=O)[C@H](O)[C@@H](O)[C@@H]2O)[C@H](O)[C@H](O)[C@H]1O ?
4.5

What measured IC50 goes with O=c1cc(-c2ccccc2)oc2cc(O)c(O)c(O)c12 [baicalein, 5,6,7-trihydroxy-2-phenylchromen-4-one] ?
3.6

###

- Test system: INS-1E cells
- Procedure Details: MTT cytotoxicity and cell survival assay, INS-1E
- Applied Conditions: 24 h
What concentration range with increased cell viability (MTT) was measured for each of the following?

What measured concentration range with increased cell viability (MTT) goes with COc1ccc2c(c1)[nH]c1c(C)nccc12 ?
1 to 2.5 µM

What measured concentration range with increased cell viability (MTT) goes with O=c1c(O)c(-c2ccc(O)c(O)c2)oc2cc(O)cc(O)c12 ?
0.25 to 5 µM

What measured concentration range with increased cell viability (MTT) goes with O=c1cc(-c2ccccc2)oc2cc(O)c(O)c(O)c12 [baicalein, 5,6,7-trihydroxy-2-phenylchromen-4-one] ?
0.1 to 2.5 µM

###

- Target Desc: DYRK1A (Homo sapiens, UniProt Q13627)
- Construct: In the assay, the truncated DYRK1A protein restricted to the kinase domain (126–490) was used; made in house; host or cells: E. coli LOBSTR strain
- Procedure Details: Cook activity assay (DYRK1A-catalyzed phosphorylation of DYRKtide, ADP production linked to PK/LDH NADH oxidation)
- Assay type: biochemical
- Applied Conditions: read-out: IC50 (DYRK1A inhibition)
Measured Parameter: pIC50
For clarity, pIC50 is expressed as the negative log10 of concentration in mol/L.

What measured pIC50 goes with O=c1c(O)c(-c2ccc(O)c(O)c2)oc2cc(O)cc(O)c12 [quercetin] ?
5.77

Where do the numbers come from? From paper PMC10593742.
